Biological target: FPRL1 (Homo sapiens, UniProt P25090)
Construct: expressed in transfected cells; host or cells: RBL-2H3
Sequence (P25090 1-351): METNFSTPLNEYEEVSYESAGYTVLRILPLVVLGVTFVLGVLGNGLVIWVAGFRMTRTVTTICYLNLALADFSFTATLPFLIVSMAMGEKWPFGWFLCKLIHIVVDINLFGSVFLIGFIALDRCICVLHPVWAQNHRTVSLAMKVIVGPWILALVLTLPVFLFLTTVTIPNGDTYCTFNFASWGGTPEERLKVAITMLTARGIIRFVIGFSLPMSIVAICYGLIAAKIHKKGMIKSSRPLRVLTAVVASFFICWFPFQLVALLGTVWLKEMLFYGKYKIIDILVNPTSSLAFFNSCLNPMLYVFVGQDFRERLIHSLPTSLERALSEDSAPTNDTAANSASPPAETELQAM
Test: [Ca2+]i increase in FPRL1-expressing RBL-2H3 cells
Type: cell-based
Conditions: 10 μM of each peptide (FIG. 7)
Where no end group is shown, it is not given here.
Test readout: [Ca^2+]i increase in FPRL1-expressing RBL-2H3 cells

- Substance: "RKYHVM-NH2 [Peptide P14]"
  Test target: "FPRL1 (Homo sapiens, UniProt P25090)"
  Result: "induced calcium increase"
- Substance: "RKYYYM-NH2 [Peptide P18]"
  Test target: "FPRL1 (Homo sapiens, UniProt P25090)"
  Result: "induced calcium increase"
- Substance: "MKYYYM-NH2 [Peptide P24]"
  Test target: "FPRL1 (Homo sapiens, UniProt P25090)"
  Result: "induced calcium increase"
- Substance: "MKYYKM-NH2 [Peptide P21]"
  Test target: "FPRL1 (Homo sapiens, UniProt P25090)"
  Result: "induced calcium increase"

###

System: undifferentiated HL60 cells
Experiment: [Ca2+]i increase in undifferentiated HL60 cells
Assay type: cell-based, human
Settings: peptides 10 μM (FIG. 8)
Where no end group is shown, it is not given here.
Test readout: [Ca^2+]i increase in undifferentiated HL60 cells

- Substance: "MKYYYM-NH2 [Peptide P24]"
  Result: "dramatically induced"
- Substance: "RKYYYM-NH2 [Peptide P18]"
  Result: "dramatically induced"
- Substance: "MKYYKM-NH2 [Peptide P21]"
  Result: "did not affect"
- Substance: "RKYHVM-NH2 [Peptide P14]"
  Result: "did not affect"

###

Tested on: human neutrophils
Test: Superoxide generation (cytochrome c reduction) in human neutrophils
Format: cell-based
Details: 1 μM of peptide, cytochrome c reduction
Where no end group is shown, it is not given here.
Test readout: Superoxide production (nmole/10^6 cells)
Supply the numeric figure in nmole/10^6 cells, leaving out any unit text.

Requested read-out: Superoxide production. Entry: RKYYYM-NH2 [Peptide P18]
28.4

Also need MKYYYM-NH2 [Peptide P24] , thanks.
34.2

Also need MKYYKM-NH2 [Peptide P21] , thanks.
12.7

Also need RKYHVM-NH2 [Peptide P14] , thanks.
9.3
